Just for reference, patent US12582641B2 is where these values come from.

# System: MM.1S cells
# assay: Proliferation inhibition (IC50) in MM.1S cells, cell viability assay
# protocol_conditions: Homo sapiens, MM1.S, 72 h, read-out: IC50 (nM), proliferation inhibitory activity of MM.1S cells (half inhibitory concentration)
parameter_measured: IC50 (nM)

compound	IC50 / nM
O=C1CCC(N2C(=O)c3cccc(SCCCCCCCNC4CC5(CCC5)C4)c3C2=O)C(=O)N1 (stereo not shown)	0.691

P = O=C1CCC(N2Cc3c(SCc4ccc(CNC56CC7CC(CC(C7)C5)C6)cc4)cccc3C2=O)C(=O)N1 (stereo not shown)
Q = O=C1CCC(N2Cc3c(SCCCCCCCN4CCC5(CC4)CC5)cccc3C2=O)C(=O)N1 (stereo not shown)
I need your help: which of the pair P , Q has higher IC50? Your answer should be the label of the entry you select.
Q
